Data provenance is PubChem BioAssay (NCI).

Tested on: COLO 205 colon
test.name: NCI tumour cell line growth inhibition, 48 h

| compound | inequality.symbol | TGI [µM] |
| --- | --- | --- |
| Cn1cnc(SC2=C3C(=O)C=C4S[C@H]5C[C@]42c2c(c(O)c4c6c2=[N+]3CCC=6C=N4)N5)c1CC(N)C(=O)O (stereo not given in full) | = | 4.44 |
| CC(C)C1=C(Cc2ccccc2)C(=O)O/C1=C\c1ccc(O)c(Cl)c1 | = | 34.6 |
| O=C(CSCC(=O)N/N=C\c1ccccc1F)N/N=C\c1ccccc1F | > | 100 |
| COC1=CC(=O)c2nc3ccccc3c3ccnc1c23 | = | 26.3 |
| S=C(N/N=C(\C(=N/NC(=S)N1CCCCC1)c1ccccn1)c1ccccn1)N1CCCCC1 | > | 100 |

----------
Tested on: CAKI-1 renal
test.name: NCI tumour cell line growth inhibition, 48 h
metric: TGI (µM)

| molecule | metric | units.text | inequality.symbol | recorded.value |
| --- | --- | --- | --- | --- |
| COc1cc(S(=O)(=O)Nc2ccc(-c3csc(N4C(=O)C(C)SC4c4ccccc4)n3)cc2)ccc1Cl (centres undefined) | TGI | µM | > | 100 |
| O=c1ccn(C2(CO)C=C(CO)C(O)C2O)c(=O)[nH]1 (centres undefined) | TGI | µM | > | 25.7 |
| CCCC(=O)c1ccc(=O)n(C)c1 | TGI | µM | > | 100 |
| O=P(O)(O)CN1CCNCCN(CP(=O)(O)O)CCN(CP(=O)(O)O)CCNCC1 | TGI | µM | = | 86100 |
| CC(=O)Nc1ccc(-c2csc(Nc3cccc(-c4csc(-c5ccccc5)n4)c3)n2)cc1 | TGI | µM | > | 50 |
| O=C1CCSC(=S)N1c1ccc(Br)c(Cl)c1 | TGI | µM | = | 77.4 |
| O=S1c2ccccc2NC(c2ccc3ccccc3c2)CC1c1ccccc1 (centres undefined) | TGI | µM | = | 79 |
| OC1(c2ccc(Cl)cc2)c2c(c3ccccc3c3ccccc23)C2=NCCN21 (centres undefined) | TGI | µM | = | 68.8 |
| CC(=O)c1ccc2c3c1O[C@H]1c4[nH]c5ccccc5c4C[C@@]4(O)[C@@H](C2)N(CC2CC2)CC[C@]314 | TGI | µM | = | 37.4 |

----------
Tested on: HCC-2998 colon
test.name: NCI tumour cell line growth inhibition, 48 h
Below, each of the compounds is paired with its reported TGI value.

| compound | TGI |
| --- | --- |
| O=C(Nc1ccc(Nc2ccncc2)cc1)c1ccc(Nc2ccnc3ccc([N+](=O)[O-])cc23)cc1[N+](=O)[O-] | > 100 µM |
| COC12C=CC(CC1)C(C)(C)C2OS(C)(=O)=O (centres undefined) | > 100 µM |
| N#Cc1ccc2[nH]c3c(c2c1)CC(=O)Nc1ccccc1-3 | > 100 µM |
| COc1ccc(-c2nnc(SCC(=O)Nc3ccc(C(=O)/C=C/c4cc(OC)c(OC)c(OC)c4)cc3)n2-c2ccccc2)cc1OC | > 10 µM |
| CCC(=O)N1C(=O)C(CC)(CC)C(=O)N1C(=O)CC | > 100 µM |
| NCCS(=O)(=O)O | > 100 µM |
| O=C(Nc1ccc(Sc2ccc(N=Nc3c(O)c(S(=O)(=O)O)cc4cc(S(=O)(=O)O)ccc34)cc2)cc1)c1ccc(N=Nc2c(O)c(S(=O)(=O)O)cc3cc(S(=O)(=O)O)ccc23)cc1 | > 100 µM |
| O=C1NC(=O)[C@@H](c2c[nH]c3ccccc23)[C@@H]1c1c[nH]c2ccccc12 | > 25 µM |
| COc1ccc(-n2cc(-c3cc(OC)c(OC)c(OC)c3)[nH]c2=S)cc1Cl | > 100 µM |

----------
Below, each of the molecules is paired with its reported TGI value.
Tested on: TK-10 renal
test.name: NCI tumour cell line growth inhibition, 48 h
metric: TGI

| molecule | recorded.value |
| --- | --- |
| COc1cc(/C(=C2/O[C@@H]([C@H]3COC(C)(C)O3)[C@H]3OC(C)(C)O[C@@H]23)c2ccc3c(c2)OCO3)cc(OC)c1OC | > 25 µM |
| O=C(c1ccco1)c1nc2cc(C(F)(F)F)ccc2[n+]([O-])c1C(F)(F)F | > 100 µM |
| C=C1CCC2C(C)(CO)C(O)CCC2(C)C1C/C=C1/CCOC1=O (stereo not drawn) | > 100 µM |
| Cc1cn([C@@H]2C[C@H](CO)[C@@H]2O)c(=O)[nH]c1=O | > 100 µM |
| CN(C)CC1CCCCCC(Br)C1=O (stereo not drawn) | 17.7 µM |
| CCN(CC)c1ccc2cc(C(N)=O)c(=Nc3ccc(F)cc3)oc2c1 | 44.7 µM |
| Clc1ccc2nc(Cl)c3ccccc3c2c1 | 31.8 µM |
| COc1cc(OC)c(F)c(COc2cnc(Nc3cnn(CCO)c3)nc2)c1F | > 27.9 µM |

----------
Test system: NCI-H226 lung
test.name: NCI tumour cell line growth inhibition, 48 h; in the data active = GI50 below about 0.43 µM; inactive = the rest
Outcomes: class 1 for active, class 0 for inactive

| compound | assigned.class |
| --- | --- |
| O=C1/C(=C/c2ccc(Cl)cc2)CN(C(=O)CCN2CCC(=NO)CC2)C/C1=C\c1ccc(Cl)cc1 | class 0 |
| OCCn1cc(-c2cnc3nnn(Cc4ccc5ncccc5c4)c3n2)cn1 | class 0 |
| CCCCCCCCNC(C)C(O)c1ccc(SC(C)C)cc1 (stereo unspecified) | class 0 |
| O=c1c2c(=NCCN3CCCC3)cc3c(=O)n(CCCN4CCOCC4)c(=O)c4ccc(c(O)n1CCCN1CCOCC1)c2c4-3 | class 1 |
| Fc1ccc([C@@H]2CCNC[C@H]2COc2ccc3c(c2)OCO3)cc1 | class 0 |
| C[C@@H](Oc1cc(-n2cnc3ccc(OCC4CCN(C)CC4)cc32)sc1C(N)=O)c1ccccc1Cl | class 0 |

----------
Test system: CCRF-CEM leukemia
test.name: NCI tumour cell line growth inhibition, 48 h

| molecule | GI50 |
| --- | --- |
| COc1cnc2c(c1)C(=O)c1c-2n(CCCNCCN2CCOCC2)c(=O)c2cc([N+](=O)[O-])ccc12 | 45.3 nM |
| CCCCCCCCCCCC1=NC(C)(C)CN1CC(C)O (stereo not given) | 2850 nM |
| CC[C@H](C)[C@H](NC(=O)NC(C)(C)C)C(=O)N(C)[C@H](C[C@@H](OC(C)=O)c1nc(C(=O)N[C@@H](Cc2ccccc2)C[C@H](C)C(=O)OC)cs1)C(C)C | 718 nM |
| COc1ccc(C(=O)/C=C/c2cc(-c3ccc4c(c3)OCO4)n[nH]2)cc1OC | 2520 nM |
| Cc1ccc(-c2cc(-c3ccc(C)cc3)nc(N3CCN(CCNc4ccnc5cc(Cl)ccc45)CC3)n2)cc1 | 1770 nM |

----------
System: SNB-19 CNS
test.name: NCI tumour cell line growth inhibition, 48 h
metric: TGI

| compound | recorded.value |
| --- | --- |
| O=C1/C(=C/c2ccc(Cl)c(Cl)c2)CNC/C1=C\c1ccc(Cl)c(Cl)c1 | 32.6 µM |
| O=C(/C=C/c1ccccc1)Oc1cccc(Br)c1 | > 100 µM |
| O=C1c2cccc3c(Cl)ccc(c23)C(=O)N1CCCN1CCN(CCCN2C(=O)c3cccc4c(Cl)ccc(c34)C2=O)CC1 | > 100 µM |
| O=C1CC(C(COCc2ccccc2)OCc2ccccc2)CC(=O)N1 (stereo unspecified) | > 100 µM |
| O=C1CCSC(=S)N1c1ccc(Br)c(Cl)c1 | 57.6 µM |
| ClC1c2ccccc2C2(c3ccccc3)OOC1(c1ccccc1)O2 (stereo unspecified) | 3.21 µM |
| Cc1ccc(C#CS(=O)(=O)C(F)(F)F)cc1 | > 100 µM |
| O=C1CCC2(c3ccc(Cl)cc3)Nc3ncncc3N12 (stereo unspecified) | > 10 µM |
| O=C1C=C(O)c2c(O)ccc(O)c2C1=O | > 100 µM |
| N#Cc1ccc2[nH]c3c(c2c1)CC(=O)Nc1ccccc1-3 | > 100 µM |
| CCN(CC)C1Oc2cc3c(cc2C(c2cccc(OC)c2O)C1C)OCO3 (stereo unspecified) | 31.4 µM |

----------
Test system: SF-295 CNS
test.name: NCI tumour cell line growth inhibition, 48 h

| molecule | TGI |
| --- | --- |
| COC1=CC(=O)c2nc3ccccc3c3ccnc1c23 | 19.7 µM |
| c1ccc2c(c1)Sc1ccccc1N2C1CN2CCC1CC2 (stereo unspecified) | 32.2 µM |
| CN1C(=O)CCC1c1ccc2c(c1)oc(=O)n2C (stereo unspecified) | > 100 µM |
| ClC1c2ccccc2C2(c3ccccc3)OOC1(c1ccccc1)O2 (stereo unspecified) | 5.85 µM |
| CC1C(C#N)(C#N)C(C#N)=C(N)C1(C)[N+](=O)[O-] (stereo unspecified) | > 100 µM |
| CNC(=O)c1cc(Oc2ccc3nc(N[C@@H]4CCCC[C@H]4O)sc3c2)ccn1 | > 100 µM |
| CCN(CC)c1ccc2cc(C(N)=O)c(=Nc3ccc(F)cc3)oc2c1 | > 100 µM |
| OC(C1CCCCCCCCCC1)C(O)C1CCCCCCCCCC1 (stereo unspecified) | > 100 µM |
| COc1ccc(N2C(=O)C3c4[nH]c5ccccc5c4C4c5ccccc5CC4C3C2=O)cc1 (stereo unspecified) | > 100 µM |
| COc1cccc([C@@H]2CC(=O)c3cc4c(cc3N2)OCO4)c1 | > 100 µM |
| Cn1cnc(SC2=C3C(=O)C=C4S[C@H]5C[C@]42c2c(c(O)c4c6c2=[N+]3CCC=6C=N4)N5)c1CC(N)C(=O)O (stereo partly specified) | 29.4 µM |
